From: patent US6462038B1

Molecular target: hAR (Homo sapiens)
Construct: expressed in transfected cells; host or cells: CV-1 cells (African green monkey kidney fibroblasts)
Sequence (P10275 1-920): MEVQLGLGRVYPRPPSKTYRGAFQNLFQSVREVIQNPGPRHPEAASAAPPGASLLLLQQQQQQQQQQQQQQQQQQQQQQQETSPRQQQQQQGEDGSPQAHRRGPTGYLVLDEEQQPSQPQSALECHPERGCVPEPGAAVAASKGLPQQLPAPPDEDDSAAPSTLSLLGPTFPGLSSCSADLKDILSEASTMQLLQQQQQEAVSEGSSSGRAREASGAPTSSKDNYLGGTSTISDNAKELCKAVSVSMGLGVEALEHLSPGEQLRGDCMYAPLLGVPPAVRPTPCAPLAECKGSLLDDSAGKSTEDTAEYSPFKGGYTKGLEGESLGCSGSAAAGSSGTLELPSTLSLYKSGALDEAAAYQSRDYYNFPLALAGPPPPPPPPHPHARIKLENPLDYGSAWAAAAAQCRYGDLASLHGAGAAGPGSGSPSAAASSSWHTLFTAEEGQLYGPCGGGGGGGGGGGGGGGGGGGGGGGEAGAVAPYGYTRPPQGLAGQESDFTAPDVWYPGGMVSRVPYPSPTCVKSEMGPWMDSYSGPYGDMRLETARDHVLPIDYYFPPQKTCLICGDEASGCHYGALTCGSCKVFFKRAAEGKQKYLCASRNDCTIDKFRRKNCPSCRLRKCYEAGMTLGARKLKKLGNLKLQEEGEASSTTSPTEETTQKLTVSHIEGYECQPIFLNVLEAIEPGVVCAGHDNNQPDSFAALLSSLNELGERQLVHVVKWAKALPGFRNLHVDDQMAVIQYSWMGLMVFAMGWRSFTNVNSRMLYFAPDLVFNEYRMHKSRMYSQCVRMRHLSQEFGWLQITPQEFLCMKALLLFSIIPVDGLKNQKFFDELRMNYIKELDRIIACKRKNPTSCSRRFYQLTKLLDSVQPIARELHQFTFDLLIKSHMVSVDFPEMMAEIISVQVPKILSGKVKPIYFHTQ
Test: co-transfection assay, AR antagonist (in presence of DHT), CV-1 cells
Assay type: cell-based
Settings: hAR in CV-1 cells; maximal inhibition, DHT at EC50
READOUT: AR Antagonist CV-1 Cells Efficacy (%)
Give the value, in units of %, as a plain number.

Name the reported AR Antagonist CV-1 Cells Efficacy (%) value associated with the compound CC(C)CN1CCOc2cc3c(cc21)c(C(F)(F)F)cc(=O)n3C 78

Name the reported AR Antagonist CV-1 Cells Efficacy (%) value associated with the compound CN1CCOc2cc3c(cc21)c(C(F)(F)F)cc(=O)n3C 58

Name the reported AR Antagonist CV-1 Cells Efficacy (%) value associated with the compound O=c1cc(C(F)(F)F)c2cc3c(cc2[nH]1)OCCN3Cc1ccccn1 75
